Answer each item with its documented Efflux ratio.
- Test system: Pseudomonas aeruginosa MB9798 vs MB9799
- test.parameters: fold difference between efflux+ (MB9798) and efflux− (MB9799) strains; imipenem at 2 μg/mL
Respond numerically, and do not add a unit to the figure.

q: Record request: Efflux ratio value, item C[C@@H](N)CNS(=O)(=O)c1ccc(-c2cccc3sc(N)nc23)c(-c2nn[nH]n2)c1S(N)(=O)=O [Example 390]
a: 0.50

q: I am curious: what Efflux ratio value has been reported for NCc1nc2cc(-c3ccc(S(=O)(=O)NC[C@H](O)CN)c(S(N)(=O)=O)c3-c3nn[nH]n3)ccc2s1 [Example 463] ?
a: 1.00

q: What value of Efflux ratio has been recorded for this entry: NCCNS(=O)(=O)c1ccc(-c2ccc3sc(CN)nc3c2)c(-c2nn[nH]n2)c1S(N)(=O)=O [Example 476]
a: 1.00

q: # get_value(readout='Efflux ratio', item= C[C@@H](CN)NS(=O)(=O)c1ccc(-c2ccc(N)nc2)c(-c2nn[nH]n2)c1S(N)(=O)=O [Example 394] )
a: 2.00

q: // lookup Efflux ratio for NCCNS(=O)(=O)c1ccc(-c2cccc3[nH]c([C@@H]4C[C@@H](O)CN4)nc23)c(-c2nn[nH]n2)c1S(N)(=O)=O [Example 444]
a: 1.00

q: Reported Efflux ratio, compound Nc1ccc(-c2ccc(S(=O)(=O)N[C@H]3CNC[C@H]3O)c(S(N)(=O)=O)c2-c2nn[nH]n2)cn1 [Example 410] : ____
a: 1.00

q: Efflux ratio lookup needed for NC[C@@H](CO)NS(=O)(=O)c1ccc(-c2cccc3[nH]c(N)nc23)c(-c2nnn[nH]2)c1S(N)(=O)=O [Example 426] , thanks.
a: 0.50

q: Request the reported Efflux ratio associated with Nc1ccc(-c2ccc(S(=O)(=O)NCC3(O)CCNCC3)c(S(N)(=O)=O)c2-c2nn[nH]n2)cn1 [Example 492]
a: 1.00

q: Entry under review: NCCNS(=O)(=O)c1ccc(-c2ccc3nccn3c2)c(-c2nn[nH]n2)c1S(N)(=O)=O [Example 401] . Reported Efflux ratio?
a: 2.00

q: Which Efflux ratio reading was recorded for the compound NCC(F)(F)c1nc2c(-c3ccc(S(=O)(=O)N[C@H]4CCNC4)c(S(N)(=O)=O)c3-c3nn[nH]n3)cccc2[nH]1 [Example 446] ?
a: 2.00

q: Consider the compound NCC(CN)NS(=O)(=O)c1ccc(-c2ccnc(-c3cnc(N)[nH]3)c2)c(-c2nnn[nH]2)c1S(N)(=O)=O [Example 437] and give its measured Efflux ratio.
a: 2.00

q: For the compound shown here, NCCNS(=O)(=O)c1ccc(-c2cccc3c2CCCN3)c(-c2nn[nH]n2)c1S(N)(=O)=O [Example 455] , give the reported Efflux ratio.
a: 8.00

q: So what's the measured Efflux ratio for this one? C[C@H](CCN)NS(=O)(=O)c1ccc(-c2ccc(N)nc2)c(-c2nn[nH]n2)c1S(N)(=O)=O [Example 498]
a: 1.00

q: Name the recorded Efflux ratio for Nc1ccc(-c2ccc(S(=O)(=O)NC3CNC3)c(S(N)(=O)=O)c2-c2nn[nH]n2)cn1 [Example 493] .
a: 0.50

q: Any idea what its Efflux ratio is? The compound is Cl.Cl.NCCCNS(=O)(=O)c1ccc(-c2ccc(N)nc2)c(-c2nn[nH]n2)c1S(N)(=O)=O [Example 496]
a: 1.00

q: I have this compound here, NCCNS(=O)(=O)c1ccc(-c2cccc(NC(=O)[C@H](N)CO)c2)c(-c2nn[nH]n2)c1S(N)(=O)=O [Example 454] , and I need its recorded Efflux ratio.
a: 2.00

q: Give its Efflux ratio value. Item: NCCNc1ncccc1-c1ccc(S(=O)(=O)N[C@@H]2CCNC2)c(S(N)(=O)=O)c1-c1nn[nH]n1 [Example 459]
a: 2.00

q: Name the reported Efflux ratio value associated with the compound Nc1ncc(-c2cc(-c3ccc(S(=O)(=O)N[C@@H]4CCNC4)c(S(N)(=O)=O)c3-c3nnn[nH]3)ccn2)[nH]1 [Example 440]
a: 2.00

q: // query Efflux ratio value for entry C[C@H](CN)NS(=O)(=O)c1ccc(-c2cccc3c2nc(N)n3C)c(-c2nn[nH]n2)c1S(N)(=O)=O [Example 395]
a: 2.00

q: I am curious: what Efflux ratio value has been reported for NC[C@H](N)CNS(=O)(=O)c1ccc(-c2cccc(-c3c[nH]c(N)n3)c2)c(-c2nn[nH]n2)c1S(N)(=O)=O [Example 434] ?
a: 2.00

q: Bench note: what Efflux ratio did NC[C@@H](O)CNS(=O)(=O)c1ccc(-c2cnc(N)c(F)c2)c(-c2nn[nH]n2)c1S(N)(=O)=O [Example 478] show?
a: 1.00

q: What does the record list as Efflux ratio for NCc1sc(N)nc1-c1cccc(-c2ccc(S(=O)(=O)N[C@@H]3CCNC3)c(S(N)(=O)=O)c2-c2nnn[nH]2)c1 [Example 432] ?
a: 1.00

q: Fill blank: measured Efflux ratio of the compound NCc1nc(-c2cccc(-c3ccc(S(=O)(=O)N[C@H]4CNC[C@H]4N)c(S(N)(=O)=O)c3-c3nn[nH]n3)c2)c[nH]1 [Example 462] is ____.
a: 2.00

q: Fill blank: measured Efflux ratio of the compound NC[C@@H](N)CNS(=O)(=O)c1ccc(-c2ccc(N)nc2)c(-c2nn[nH]n2)c1S(N)(=O)=O [Example 416] is ____.
a: 1.00

q: Could you share which Efflux ratio value was measured for C[C@@H](CN)NS(=O)(=O)c1ccc(-c2cccc3sc(N)nc23)c(-c2nn[nH]n2)c1S(N)(=O)=O [Example 389] ?
a: 1.00

q: GET /values?readout=Efflux ratio&item= NCc1nc2cc(-c3ccc(S(=O)(=O)NC[C@@H](O)CN)c(S(N)(=O)=O)c3-c3nn[nH]n3)ccc2s1 [Example 473]
a: 1.00

q: I have this compound here, NCc1nc2cc(-c3ccc(S(=O)(=O)N[C@@H](CN)CO)c(S(N)(=O)=O)c3-c3nn[nH]n3)ccc2s1 [Example 475] , and I need its recorded Efflux ratio.
a: 1.00

q: Query: Efflux ratio; subject: NCCNS(=O)(=O)c1ccc(-c2ccnc(CN)c2)c(-c2nn[nH]n2)c1S(N)(=O)=O [Example 461]
a: 4.00
